Experiment: chemical genetic growth profiling, strain panel (AID 1159580);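 note: tested at 20 µM; growth read once vehicle control cultures reached saturation at 30 °C; 1 = growth at the plate median or of vehicle wells; lower values mean less growth of the strain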
Settings: S. cerevisiae deletion strains, growth OD, locus YMR263W, strain SAP30, hits give low values
Screen size: about 5,500 compounds; about 2,000 (36%) were called active. Not shown: some 18% with an inconclusive outcome. The list shows a part of the results.
parameter: normalized growth

O=C(O)CCCOc1ccc(Cl)cc1Cl : 0.989
COc1ccc(C(=O)CC(=O)c2ccc(C(C)(C)C)cc2)cc1 : 0.988
Clc1ccc(OCCOc2ccc(Cl)cc2)cc1 : 1.01
CN(C)CCC(c1ccc(Br)cc1)c1ccccn1 (stereo unspecified) : 0.976
C[C@H](CCC(=O)O)[C@H]1CCC2C3C(CC[C@@]21C)[C@@]1(C)CC[C@@H](O)C[C@H]1C[C@@H]3O (stereo partly specified) : 1
CCCC(C(=O)OCCN(CC)CC)(c1ccccc1)c1ccccc1 : 1
